# Target under test: Jak2 (UniProt O60674)
# Sequence (O60674 whole entry, looked up): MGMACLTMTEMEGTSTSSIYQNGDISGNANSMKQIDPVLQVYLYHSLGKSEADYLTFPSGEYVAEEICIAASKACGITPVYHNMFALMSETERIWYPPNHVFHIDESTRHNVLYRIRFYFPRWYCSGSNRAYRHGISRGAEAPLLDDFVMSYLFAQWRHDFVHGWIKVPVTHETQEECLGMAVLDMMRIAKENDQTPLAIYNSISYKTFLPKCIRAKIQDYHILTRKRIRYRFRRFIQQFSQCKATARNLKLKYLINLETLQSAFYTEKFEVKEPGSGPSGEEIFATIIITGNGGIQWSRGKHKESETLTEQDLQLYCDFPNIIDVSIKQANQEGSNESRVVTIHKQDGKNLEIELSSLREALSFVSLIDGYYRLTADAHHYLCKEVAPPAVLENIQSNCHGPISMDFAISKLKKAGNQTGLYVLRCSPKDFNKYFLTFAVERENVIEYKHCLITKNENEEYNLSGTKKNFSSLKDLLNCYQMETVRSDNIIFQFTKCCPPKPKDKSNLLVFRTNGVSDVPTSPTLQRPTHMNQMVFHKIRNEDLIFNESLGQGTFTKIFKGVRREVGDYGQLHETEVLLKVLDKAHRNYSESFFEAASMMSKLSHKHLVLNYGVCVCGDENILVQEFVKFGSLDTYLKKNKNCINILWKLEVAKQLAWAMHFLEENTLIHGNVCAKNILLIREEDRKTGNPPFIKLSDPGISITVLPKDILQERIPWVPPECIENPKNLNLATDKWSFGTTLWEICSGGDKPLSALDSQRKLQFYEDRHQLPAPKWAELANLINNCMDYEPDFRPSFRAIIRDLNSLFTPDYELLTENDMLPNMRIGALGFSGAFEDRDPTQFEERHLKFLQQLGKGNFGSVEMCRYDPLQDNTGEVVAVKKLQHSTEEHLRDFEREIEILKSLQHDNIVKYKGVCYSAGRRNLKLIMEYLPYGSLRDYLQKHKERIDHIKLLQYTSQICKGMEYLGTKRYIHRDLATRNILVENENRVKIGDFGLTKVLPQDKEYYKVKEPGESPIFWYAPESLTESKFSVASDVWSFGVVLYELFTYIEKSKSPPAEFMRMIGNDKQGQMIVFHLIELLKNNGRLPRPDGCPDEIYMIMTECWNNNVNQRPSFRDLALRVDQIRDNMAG
# Method: phosphorylation enrichment, bacterial display (enrichment ratio); higher = better substrate or ligand; peptides without Tyr show the background;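 further: 11-residue human phosphosite peptides and single-mutation variants displayed on the E. coli surface, counted by deep sequencing, each peptide's frequency after selection divided by its frequency in the unselected input library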;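 further: frequency after pTyr selection over input frequency; kinase dosed for 20-30% of maximal phosphorylation in three min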
Test readout: phosphorylation enrichment
Lab note: record the figure alone, no unit after it.

Return the recorded phosphorylation enrichment value; entry: GESVSYLFSHV [PRPS1_Y311] 0.847

Return the recorded phosphorylation enrichment value; entry: RAFSWYQHQRA [NDST1_Y714_YF] 1.25

Return the recorded phosphorylation enrichment value; entry: RELGEYGLQAY [ALDH2_Y497] 1.32

Return the recorded phosphorylation enrichment value; entry: NVTGHYIPPFH [PPA2_Y59_S61P] 0.498

Return the recorded phosphorylation enrichment value; entry: AKRKNYAPVAM [CFAP47_Y557] 0.341

Return the recorded phosphorylation enrichment value; entry: FLRTGYSVPFG [TGM1_Y370_YF] 0.929

Return the recorded phosphorylation enrichment value; entry: TSFQMYDKGLV [IARS2_Y231_F227S_YF] 1.03

Return the recorded phosphorylation enrichment value; entry: IDSTPYRQWFE [RPS8_Y109_YF] 0.855

Return the recorded phosphorylation enrichment value; entry: VECHPYFTQPK [AKR1D1_Y199] 0.819
